Below is a list of entries, each paired with its recorded inhibition value.
target: Cytoplasmic tyrosine-protein kinase BMX (Homo sapiens); settings: at 1 µM;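 further: reported value is the mean percent inhibition of BMX, from the GSK PKIS kinase inhibitor screen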
The response must be a number in % with no trailing unit.

Guide cases for inhibition, answers given:
N#Cc1ccc(Oc2nccc(-c3c(-c4ccc(F)cc4)ncn3C3CCNCC3)n2)cc1
4.26
NC(=O)c1cc(-c2ccc(F)cc2)cc(-c2ccncc2)c1N
7.6
Fc1ccc(-c2nc3n(c2-c2ccncc2)CCS3)cc1
4.87
COc1cccc(/C=N/Nc2ncnc3c2cnn3-c2cccc(OC)c2)c1
5.64
O=C(Nc1n[nH]c2nc(-c3ccc(O)cc3)c(Br)cc12)C1CC1
13.4
Fc1ccc(-c2ncn(C3CCNCC3)c2-c2ccnc(Oc3ccc(F)c(F)c3)n2)cc1
3.49

Query: inhibition; subject: COc1cc(Nc2ncc3c(C)nc(-c4cccc(C(F)(F)F)c4)n3n2)cc(OC)c1OC
11.9

How about this compound: C[C@@H](Oc1cc(-n2cnc3ccc(OCC4CCN(C)CC4)cc32)sc1C(N)=O)c1ccccc1Cl
2.71

How about this compound: COc1ccc(-c2ccc3c(NC(=O)C4CC4)n[nH]c3n2)cc1
2.59

How about this compound: NCc1ccc(-n2c(-c3nonc3N)nc3cnccc32)cc1
4.77

How about this compound: O=C1Nc2ccc(I)cc2C1=Cc1cc(Br)c(O)c(Br)c1
7.27

How about this compound: C[C@@H](Oc1cc(-n2cnc3ccc(OC4CCN(C)CC4)cc32)sc1C(N)=O)c1ccccc1Cl
6.6

How about this compound: O=C(Nc1n[nH]c2nc(-c3ccco3)ccc12)C1CC1
1.83

* * *

biological target: Tyrosine-protein kinase JAK1 (Homo sapiens); settings: at 0.1 µM
Description: GSK_PKIS: JAK1 mean inhibition at 0.1 uM [Nanosyn]
Property Measured: inhibition (%)
The response must be a number in % with no trailing unit.

Guide cases for inhibition, answers given:
Cc1ccc(C(=O)NC2CCC2)cc1-c1ccc(C(=O)NCC2CC2)cc1
0.07
COc1cccc(/C=N/Nc2ncnc3c2cnn3-c2cccc(OC)c2)c1
1.61
O=C(Nc1n[nH]c2cc(-c3cc(F)ccc3F)ccc12)C1CC1
3.49

Lab request: please report inhibition under test system Tyrosine-protein kinase JAK1 (Homo sapiens) for O=C1Nc2ccc(I)cc2C1=Cc1cc(Br)c(O)c(Br)c1
1.44

How about this compound: O=C(Nc1n[nH]c2nc(-c3ccc(O)cc3)c(Br)cc12)C1CC1
15.5

How about this compound: CS(=O)(=O)CCNCc1cc(-c2cc3c(Nc4ccc(OCc5cccc(F)c5)c(Cl)c4)ncnc3s2)cs1
-1.42

How about this compound: COc1cc(Nc2ncc3c(C)nc(-c4cccc(Oc5ccccc5)c4)n3n2)cc(OC)c1OC
1.98

How about this compound: CN1CCN(CCCNc2nc3ccc(Oc4ccc(NC(=O)Nc5cc(C(F)(F)F)ccc5F)cc4)cc3[nH]2)CC1
6.45

How about this compound: FC(F)(F)c1cccc(Nc2nccc(-c3cnn4nc(-c5ccccc5)ccc34)n2)c1
-0.86

How about this compound: Fc1ccc(-c2nc3n(c2-c2ccncc2)CCS3)cc1
2.03

* * *

molecular target: Dual specificity protein kinase TTK (Homo sapiens) (UniProt P33981); conditions: at 1 µM;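 further: reported figures are mean TTK inhibition at 1 µM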
Sequence (P33981 whole entry): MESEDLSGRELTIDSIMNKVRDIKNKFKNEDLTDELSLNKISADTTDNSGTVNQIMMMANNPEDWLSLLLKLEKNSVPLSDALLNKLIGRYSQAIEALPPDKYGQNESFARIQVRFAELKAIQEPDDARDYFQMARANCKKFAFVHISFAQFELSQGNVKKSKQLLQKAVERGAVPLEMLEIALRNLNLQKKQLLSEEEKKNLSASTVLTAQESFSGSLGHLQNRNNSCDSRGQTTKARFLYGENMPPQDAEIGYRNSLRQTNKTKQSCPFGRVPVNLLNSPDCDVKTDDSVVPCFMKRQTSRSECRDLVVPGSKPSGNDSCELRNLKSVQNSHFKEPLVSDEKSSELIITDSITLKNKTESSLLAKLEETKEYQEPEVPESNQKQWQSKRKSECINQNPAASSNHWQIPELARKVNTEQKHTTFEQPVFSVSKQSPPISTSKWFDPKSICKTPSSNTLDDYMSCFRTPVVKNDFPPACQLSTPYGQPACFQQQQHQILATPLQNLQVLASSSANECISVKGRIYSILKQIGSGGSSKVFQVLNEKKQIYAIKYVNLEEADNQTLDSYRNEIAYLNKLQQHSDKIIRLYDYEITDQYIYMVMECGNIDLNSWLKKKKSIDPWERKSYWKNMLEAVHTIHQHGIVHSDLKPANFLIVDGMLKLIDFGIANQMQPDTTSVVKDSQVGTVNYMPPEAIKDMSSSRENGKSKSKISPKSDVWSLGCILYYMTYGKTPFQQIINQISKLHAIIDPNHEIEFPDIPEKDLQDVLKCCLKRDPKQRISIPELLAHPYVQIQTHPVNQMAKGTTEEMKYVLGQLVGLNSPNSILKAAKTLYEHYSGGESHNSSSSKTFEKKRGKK
Property Measured: inhibition
Give me the value, and tack the unit on after it.

Guide cases for inhibition, answers given:
NC(=O)c1cc(-c2ccncc2)cc(-c2ccccc2)c1N
10.8%
CN(C)c1ccc2c(c1)/C(=C/Nc1ccc(S(N)(=O)=O)cc1)C(=O)N2
12.5%
COc1cccc(/C=N/Nc2ncnc3c2cnn3-c2cccc(OC)c2)c1
9.42%

Query: inhibition; subject: CS(=O)(=O)CCNCc1ccc(-c2ccc3ncnc(Nc4ccc(OCc5ccccc5)c(Br)c4)c3c2)o1
10.2%

How about this compound: COc1ccc(C2=C(N3CCc4ccccc43)C(=O)NC2=O)cc1
5.34%
